Tested on: MDA-MB-435
Test: NCI tumour cell line growth inhibition, 48 h
Measured TGI, listed per entry for reference.

Example entries begin here.
• O=C(CSCC(=O)N/N=C\c1ccc(F)cc1F)N/N=C\c1ccc(F)cc1F = > 100 µM
• CN(C)c1ccc(N=C2N=C(Nc3ccccc3)C(=Nc3ccccc3)S2)cc1 = > 100 µM

Next compound, please.
Q. Tell me the measured TGI of "N#Cc1c(-c2ccc([N+](=O)[O-])cc2)c2c([nH]c1=O)-c1ccccc1CCC2" , please.
A. > 100 µM

----------
Below, each entry is listed with its recorded TGI.
Tested on: M14 melanoma
Assay: NCI tumour cell line growth inhibition, 48 h

Q. Hi! What's the reported TGI for CC(C)CNC1=NCC(C)S1 (stereo not drawn) on M14 melanoma?
A. > 100 µM

Q. Item CC(=O)NC(CCCNC(=O)N(C)N=O)C(=O)NCc1ccccc1 (stereo not drawn) with M14 melanoma - TGI?
A. > 100 µM

Q. I'm curious: which TGI was measured for CC(C)CC(=O)CC(C)[C@]1(CCCOCc2ccccc2)C(=O)N2CCC3(C[C@@]24CCC[C@H]41)OCCO3 (stereo partly drawn) tested on M14 melanoma?
A. > 10 µM

Q. Under M14 melanoma: TGI value of "O=C1NC(=O)C(CCC(=O)c2cccc3ccccc23)C(=O)N1" ?
A. > 100 µM

Q. Notebook: pull reported TGI for M14 melanoma, entry N#CC(O)CCOCc1ccccc1 (stereo not drawn)
A. > 100 µM

Q. For M14 melanoma, provide TGI of COc1cc(OCCN(C)C)c2[nH]c(C(=O)N3CC(CCl)c4c3cc(N)c3ccccc43)cc2c1 (stereo not drawn) please.
A. < 0.01 µM

Q. Quick check: TGI on M14 melanoma, item "Cc1ccc(/C(=N/NS(=O)(=O)c2cc(C)c(Cl)cc2Cl)Sc2cc(Cl)c(C)cc2S(N)(=O)=O)cc1" ?
A. > 100 µM

Q. What is its TGI for M14 melanoma? Entry: CCCC(=O)OCC1OC(n2cc(F)c(=O)[nH]c2=O)C(F)C1O (stereo not drawn)
A. > 100 µM
